Would you mind telling me the reported binding signal of each entry?
Molecular target: GST-Nv-NF-kB (Ser allele) (Nematostella vectensis, UniProt A7UNT2 2-411)
Sequence: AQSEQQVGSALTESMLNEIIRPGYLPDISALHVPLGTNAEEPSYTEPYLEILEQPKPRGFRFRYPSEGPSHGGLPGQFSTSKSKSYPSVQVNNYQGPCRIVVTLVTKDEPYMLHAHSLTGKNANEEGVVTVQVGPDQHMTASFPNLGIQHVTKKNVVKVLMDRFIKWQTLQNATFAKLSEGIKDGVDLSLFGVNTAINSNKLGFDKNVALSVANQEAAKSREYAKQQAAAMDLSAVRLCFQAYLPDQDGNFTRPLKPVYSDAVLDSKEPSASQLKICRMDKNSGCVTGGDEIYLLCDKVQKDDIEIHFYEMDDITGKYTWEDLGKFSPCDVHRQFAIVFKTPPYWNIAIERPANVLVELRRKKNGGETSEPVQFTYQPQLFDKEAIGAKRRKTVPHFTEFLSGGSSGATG
Assay: protein-binding microarray (PBM); PBM: ~300 nM protein, 6 mM HEPES pH 7.8, 80 mM KCl, 0.5 mM EDTA, 0.5 mM EGTA, 6% glycerol, 35 ng/ul poly-dIdC, 1% milk, 1 h, room temperature; Ap Aiptasia and Nv Nematostella (sea anemones) / Co Capsaspora / Aq Amphimedon (sponge) / Dm Drosophila / Hu human; RHD is the Rel homology domain; high values mean tight binding
Details: dsDNA, one strand shown
The figure you give is taken to be in z-score; do not add the unit.

Prompt: Please look at this sequence and report its binding signal: CCGATTAACATCAGGGGGTGATATGATGTTAATCGGGTCTTGATTCGCTTGACGCTGCTG
Completion: 4.45

Prompt: Please look at this sequence and report its binding signal: CCGATTAACATCACCGCTTCCCTTGATGTTAATCGGGTCTTGATTCGCTTGACGCTGCTG
Completion: 1.69

Prompt: Please look at this sequence and report its binding signal: CCGATTAACATCACAGCCCCCCCTGATGTTAATCGGGTCTTGATTCGCTTGACGCTGCTG
Completion: 3.62

Prompt: Please look at this sequence and report its binding signal: CCGATTAACATCAGGCTATCCCCTGATGTTAATCGGGTCTTGATTCGCTTGACGCTGCTG
Completion: 3.73

Prompt: Please look at this sequence and report its binding signal: CCGATTAACATCAGGGGATTAGATGATGTTAATCGGGTCTTGATTCGCTTGACGCTGCTG
Completion: 6.46
